procedure summary: Cytotoxicity in MCF-10A cells (alamarBlue)
Format: cell-based, human
settings: human, MCF-10A non-tumorigenic mammary epithelial cells, 10 μM, 48 h, read-out: viable cells
Description: Figure 9 Effect of compounds 22a (A) and 22b (B) on the cell viability of non-tumorigenic MCF-10A human mammary epithelial cells at 24, 48, and 72 h. Cells were treated with the compounds 22a and 22b at concentrations of 10 μM, 1 μM, 0.5 μM, and 0.4 μM for 24, 48, or 72 h. […] Cell viability was expressed as a percentage of vehicle control (ethanol 1% (v/v)) and was determined by an alamarBlue assay (average ± SEM of three independent experiments). […]
Recorded measurements of viability at 48 h, 10 µM, one per entry

COc1ccc(/C=C/C(c2cc(OC)c(OC)c(OC)c2)n2cncn2)cc1 (centres unmarked) [Compound 22a] : ~57%

// next entry
Write down viability at 48 h, 10 µM measured for item COc1ccc(/C=C/C(c2cc(OC)c(OC)c(OC)c2)n2cncn2)cc1O (centres unmarked) [Compound 22b]
~30%

* * *

procedure summary: Cytotoxicity in MCF-10A cells (alamarBlue)
Assay type: cell-based, human
settings: human, MCF-10A non-tumorigenic mammary epithelial cells, 10 μM, 72 h, read-out: cell viability
Description: Figure 9 Effect of compounds 22a (A) and 22b (B) on the cell viability of non-tumorigenic MCF-10A human mammary epithelial cells at 24, 48, and 72 h. Cells were treated with the compounds 22a and 22b at concentrations of 10 μM, 1 μM, 0.5 μM, and 0.4 μM for 24, 48, or 72 h. […] Cell viability was expressed as a percentage of vehicle control (ethanol 1% (v/v)) and was determined by an alamarBlue assay (average ± SEM of three independent experiments). […]
property label: viability at 72 h, 10 µM (%)
Your answer is read as %, so omit the unit and give the number.

Identify viability at 72 h, 10 µM associated with the compound COc1ccc(/C=C/C(c2cc(OC)c(OC)c(OC)c2)n2cncn2)cc1O (stereo not shown) [Compound 22b]
24

* * *

The reader will find reported growth percent values listed item by item below.
System: HCT-15 (Colon Cancer)
procedure summary: NCI60 screen (SRB)
Type: cell-based, human
settings: one dose 10 µM, 48 h

COc1cc(/C=C/C(/C=C/c2cc(OC)c(OC)c(OC)c2)n2ccnc2)cc(OC)c1OC : 77.23%
COc1ccc(/C=C/C(c2cc(OC)c(OC)c(OC)c2)n2cncn2)cc1 (centres unmarked) [Compound 22a] : 31.14%
COc1ccc(C2CC(n3ccnc3)c3cc(OC)c(OC)c(OC)c32)cc1O (centres unmarked) [Compound 27a] : 59.92%

State its growth percent: COc1ccc(/C=C/C(c2cc(OC)c(OC)c(OC)c2)n2cncn2)cc1O (centres unmarked) [Compound 22b]
16.53%

Give me measured growth percent, please, for this compound: COc1ccc(/C=C/C(c2cc(OC)c(OC)c(OC)c2)n2ccnc2)cc1O (centres unmarked) [Compound 23b]
24.91%

* * *

procedure summary: Cytotoxicity in MCF-10A cells (alamarBlue)
Type: cell-based, human
settings: human, MCF-10A non-tumorigenic mammary epithelial cells, 0.5 μM, 72 h, read-out: cell viability
property label: viability at 72 h, 0.5 µM (%)
Numbers only; they are read as %.

Consider the molecule COc1ccc(/C=C/C(c2cc(OC)c(OC)c(OC)c2)n2cncn2)cc1O (stereo not shown) [Compound 22b] and give its recorded viability at 72 h, 0.5 µM.
80

Values from paper PMC11769294
